target-or-test-system: human CD33 on primary human monocyte-derived dendritic cells (human, UniProt P20138 18-364)
Sequence (P20138 18-364): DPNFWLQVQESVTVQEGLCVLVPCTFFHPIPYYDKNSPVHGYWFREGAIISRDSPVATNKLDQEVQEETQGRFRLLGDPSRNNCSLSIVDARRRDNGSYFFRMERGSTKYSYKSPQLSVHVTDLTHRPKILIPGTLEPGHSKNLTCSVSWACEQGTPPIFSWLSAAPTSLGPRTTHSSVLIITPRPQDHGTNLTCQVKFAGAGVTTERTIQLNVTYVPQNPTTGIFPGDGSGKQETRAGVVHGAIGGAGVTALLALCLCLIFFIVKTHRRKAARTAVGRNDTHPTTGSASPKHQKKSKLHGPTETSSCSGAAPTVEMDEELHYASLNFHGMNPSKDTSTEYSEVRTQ
method-summary: cell-based or functional assay
Maximal Downregulation (% CD33 remaining) reference
# output: bare number, implied unit %

binder	reported-value
AB-63.13 (antibody, V domains shown) VH: QVQLVQSGAEVKKPGASVKVSCKASGYTFTDYNLHWVRQAPGQGLEWIGFIYPSNGIRGYAQKFQGRVTMTVDTSTSTVYMELSSLRSEDTAVYYCARSDVDYFDYWGQGTLVTVSS VL: DIVLTQSPDSLAVSLGERATINCRASQSVSTSTYSYMHWYQQKPGQPPKLLIKYASNLESGVPDRFSGSGSGTDFTLTISSLQAEDVAVYYCQHSEEIPLTFGQGTKLEIK	25.5

Field: next binder
The binder AB-63.8 (antibody, V domains shown) VH: QVQLVQSGAEVKKPGSSVKVSCKASGVTFTDYNYHWVRQAPGQGLEWIGFIYPSNGITGYAQKFQDRVTMTVDTSTSTVYMELSSLRSEDTAVYYCARSTVDYFDYWGQGTLVTVSS VL: DIVLTQSPDSLAVSLGERATINCRASQDVSTSTYSYMHWYQQKPGQPPKLLIKYASNLESGVPDRFSGSGSGTDFTLTISSLQAEDVAVYYCQHSWEIPLTFGQGTKLEIK showed Maximal Downregulation (% CD33 remaining) equal to 22
